These measurements were taken from ChEMBL document CHEMBL1201862.

# System: A549
# METHOD: NCI tumour cell line growth inhibition, 48 h
Activity calls are given as the source filed them. Cut-off read from the data, not from the text of the source: active = GI50 up to about 1.1 µM and inactive = higher.
MEASUREMENT NAME: GI50

State recorded GI50 with A549, entry Cc1cc(C)c(S(=O)(=O)N(CCCN)OCCCON(CCCN)S(=O)(=O)c2c(C)cc(C)cc2C)c(C)c1 , no comment.
1.77 µM (inactive)

Using A549 as the test system, report measured GI50 of CC(=O)OC1(C#N)CC2OC1C1N=NN(C(=O)OC(C)(C)C)C21 (stereo not drawn) .
> 10 µM (inactive)

Given CCOC(=O)CCN1C(=O)c2ccc(NC(=O)C(=O)O)cc2S1(=O)=O , report its GI50 on A549.
> 100 µM (inactive)

Jot down GI50 (A549) of O=C(CNc1ccc(Cl)cc1Cl)Nn1c(-c2ccccc2)nc2ccccc2c1=O .
30.5 µM (inactive)

###

Test system HCT-15, GI50 listed for each of the compounds.

{"columns": ["COMPOUND", "GI50"],
 "data": [
  ["COC(=O)/C=C\\C1C(C(=O)OC)C2(C(=O)OC)CCC1(C(=O)OC)N2 (stereo unspecified)", "3.33 µM"]
]}

Report measured GI50 on HCT-15; entry: O=C(c1c(F)c(F)c(F)c(F)c1F)N1CCN(C(=O)c2c(F)c(F)c(F)c(F)c2F)C1=S
2.2 µM

Using HCT-15 as the test system, report measured GI50 of CCOC(=O)NC1CN2CCC1CC2 (stereo unspecified) .
> 100 µM

Enter recorded GI50 with HCT-15 for Cc1ccc(C(=O)NC(C)C)cc1/N=N/N(C)C here.
> 100 µM

Give GI50 only, for CC/C(=C\c1ccc(OC)cc1)c1ccc(OC)cc1 , using HCT-15 data.
74 µM

Report its GI50 with HCT-15 as the test system: CCOC(=O)CCn1[nH]c(=O)c(Cl)c(Cl)c1=O
> 100 µM

Write GI50 of [N-]=[N+]=NC(c1cn(C2CC(O)C(CO)O2)c(=O)[nH]c1=O)C(Cl)I (stereo unspecified) ; system used: HCT-15
> 100 µM

Fetch value of GI50 on HCT-15 for COC(=O)C1C(OCc2ccccc2)C2CCC1(OC)C=C2C (stereo unspecified) .
> 89.3 µM

Fill in: GI50 on HCT-15, entry O=C1CCC(c2nc3cc(Cl)ccc3o2)C(=O)N1 (stereo unspecified)
> 100 µM

// output GI50; input Cc1cccc2sc(-c3ccc(O)cc3)nc12 ; system HCT-15
12.6 µM

Please look at COC(=O)c1ccc2[nH]c3c(c2c1)CC(=O)Nc1ccccc1-3 and tell me its recorded GI50 on HCT-15.
> 100 µM

###

# Lookup of reported GI50 keyed by entry
# Tested on: SR
# METHOD: NCI tumour cell line growth inhibition, 48 h
The source made the active and inactive calls. Cut-off read from the data, not from the text of the source: active = GI50 up to about 1.1 µM and inactive = higher.

{"columns": ["COMPOUND", "TARGET DESC", "GI50"],
 "data": [
  ["COc1ccc(CC(CO)NC(=O)OCc2ccccc2)cc1Oc1ccc(CC(CO)NC(=O)OCc2ccccc2)cc1 (stereo not given)", "SR", "26.7 µM (inactive)"],
  ["CCOC(=O)NC1CN2CCC1CC2 (stereo not given)", "SR", "> 100 µM (inactive)"],
  ["NC1CCC(N(CC(=O)O)CC(=O)O)C(N(CC(=O)O)CC(=O)O)C1 (stereo not given)", "SR", "> 100 µM (inactive)"]
]}

Write down GI50 measured for item CCN(C(=O)N[C@@H](Cc1ccccc1)C(=O)N[C@@H](CC(C)C)C(=O)OC)c1ccccc1
6.18 µM (inactive)

State its GI50: COc1cc(O)c2c(O)c3c(c4c2c1[C@]1(C4)C(C)=CCCC1(C)C)[C@H](O)[C@@]1(O)CC(O)=C(C(N)=O)C(=O)[C@@]1(O)C3=O
0.269 µM (active)

Using the record for COc1ccc(-n2c(N)c(C#N)c(C#N)c2-c2cccc([N+](=O)[O-])c2)cc1 , state its measured GI50.
18.7 µM (inactive)

Give the reported GI50 for this compound. O=C(c1c(F)c(F)c(F)c(F)c1F)N1CCN(C(=O)c2c(F)c(F)c(F)c(F)c2F)C1=S
3.38 µM (inactive)

Provide measured GI50 value, entry: O=C(c1ccc2c3c(ccc(C(=O)C(F)(F)F)c13)CC2)C(F)(F)F
60.1 µM (inactive)

Identify GI50 associated with the compound Clc1cccc(Cl)c1C1SCc2nc3ncccc3n21 (stereo not given)
> 100 µM (inactive)

Answer with the recorded GI50 of CS(=O)(=O)c1ccc2nc(-c3ccc(O)cc3)sc2c1 only.
10.1 µM (inactive)

Please give the documented GI50 of C=CCN1C(=O)C[C@H](Cc2ccccc2)NC(=O)C[C@H](Cc2ccccc2)N(CC=C)C(=O)C[C@H](Cc2ccccc2)NC(=O)C[C@@H]1Cc1ccccc1
5.16 µM (inactive)

Read the entry CC(=O)NC1C(O)C(O)C(CO)OC1n1ncc(=O)[nH]c1=O (stereo not given) and write its reported GI50.
> 100 µM (inactive)
